# Tested on: MDA-MB-231 complex spheroids, growth inhibition
# EXPERIMENT NOTES: Anticancer human tumor MDA-MB-231 cell line growth inhibition [Asc]; active = viability on the fitted dose curve at most 10% of control; inactive = the rest;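 note: spheroids exposed to compounds for 7 days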
# RUN CONDITIONS: second compound 0.1 µM; first compound 0.03 µM
Possible outcomes: T (active), F (inactive)

# COMPOUND, MEASURED ON, QUALITATIVE LABEL
measured = [
    ("Cc1nc(N2CCC3(CC2)COC(C)C3N)c(CO)nc1Sc1ccnc(N)c1Cl (stereo not drawn) + Cc1c(S(C)(=O)=O)c(-c2cc(F)cc(N3CCN(c4ccc(NS(=O)(=O)c5ccc(NC(CCN6CCC(C(=O)OCCCP(=O)(O)O)CC6)CSc6ccccc6)c(S(=O)(=O)C(F)(F)F)c5)cc4)CC3)c2)c(-c2ccc(Cl)cc2)n1C(C)C", "MDA-MB-231 complex spheroids, growth inhibition", "F"),
    ("NC(=O)C(=Cn1cnc(-c2cc(C(F)(F)F)cc(C(F)(F)F)c2)n1)c1cncnc1 + Cc1c(S(C)(=O)=O)c(-c2cc(F)cc(N3CCN(c4ccc(NS(=O)(=O)c5ccc(NC(CCN6CCC(C(=O)OCCCP(=O)(O)O)CC6)CSc6ccccc6)c(S(=O)(=O)C(F)(F)F)c5)cc4)CC3)c2)c(-c2ccc(Cl)cc2)n1C(C)C", "MDA-MB-231 complex spheroids, growth inhibition", "F"),
    ("Cc1nc(N2CCC3(CC2)COC(C)C3N)c(CO)nc1Sc1ccnc(N)c1Cl (stereo not drawn) + CNC(C)C(=O)NC1CN(S(=O)(=O)c2cccc(S(=O)(=O)N3CCC4CCC(C(=O)NC(c5ccccc5)c5ccccc5)N4C(=O)C(NC(=O)C(C)NC)C3)c2)CCC2CCC(C(=O)NC(c3ccccc3)c3ccccc3)N2C1=O", "MDA-MB-231 complex spheroids, growth inhibition", "T"),
]

----------
# Tested on: MDA-MB-231 complex spheroids, growth inhibition
# EXPERIMENT NOTES: Anticancer human tumor MDA-MB-231 cell line growth inhibition [Asc]; active = viability on the fitted dose curve at most 10% of control; inactive = the rest;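 note: spheroids exposed to compounds for 7 days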
# RUN CONDITIONS: second compound 1 µM; first compound 1 µM
Labels: t = active, f = inactive

# COMPOUND, MEASURED ON, QUALITATIVE LABEL
rows = [
    ("C=C(F)C(=O)N1CCN(c2nc(OCC3CCCN3C)nc3c2CCN(c2cccc4cccc(Cl)c24)C3)CC1CC#N (configuration not stated) + Cc1c(S(C)(=O)=O)c(-c2cc(F)cc(N3CCN(c4ccc(NS(=O)(=O)c5ccc(NC(CCN6CCC(C(=O)OCCCP(=O)(O)O)CC6)CSc6ccccc6)c(S(=O)(=O)C(F)(F)F)c5)cc4)CC3)c2)c(-c2ccc(Cl)cc2)n1C(C)C", "MDA-MB-231 complex spheroids, growth inhibition", "f"),
    ("COc1c(OCCCN2CCOCC2)ccc2c3n(c(=NC(=O)c4cnc(N)nc4)nc12)CCN3 + CNC(C)C(=O)NC1CN(S(=O)(=O)c2cccc(S(=O)(=O)N3CCC4CCC(C(=O)NC(c5ccccc5)c5ccccc5)N4C(=O)C(NC(=O)C(C)NC)C3)c2)CCC2CCC(C(=O)NC(c3ccccc3)c3ccccc3)N2C1=O", "MDA-MB-231 complex spheroids, growth inhibition", "t"),
]

----------
# System: MDA-MB-231 complex spheroids, growth inhibition
# EXPERIMENT NOTES: Anticancer human tumor MDA-MB-231 cell line growth inhibition [Asc];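 note: spheroids exposed to compounds for 7 days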
# RUN CONDITIONS: second compound 10 µM; first compound 0.1 µM; active compounds read low
As shown below, each of these molecules has a reported viability, T/C value.
MEASUREMENT KIND: viability, T/C (%)

# MOLECULE, MEASUREMENT KIND, UNITS LABEL, RECORDED NUMBER
measured = [
    ("C#Cc1c(F)ccc2cc(O)cc(-c3ncc4c(N5CC6CCC(C5)N6)nc(OCC56CCCN5CC(F)C6)nc4c3F)c12 (stereo not drawn) + Cc1c(S(C)(=O)=O)c(-c2cc(F)cc(N3CCN(c4ccc(NS(=O)(=O)c5ccc(NC(CCN6CCC(C(=O)OCCCP(=O)(O)O)CC6)CSc6ccccc6)c(S(=O)(=O)C(F)(F)F)c5)cc4)CC3)c2)c(-c2ccc(Cl)cc2)n1C(C)C", "viability, T/C", "%", 97.2),
    ("CNC(C)C(=O)NC1CN(S(=O)(=O)c2cccc(S(=O)(=O)N3CCC4CCC(C(=O)NC(c5ccccc5)c5ccccc5)N4C(=O)C(NC(=O)C(C)NC)C3)c2)CCC2CCC(C(=O)NC(c3ccccc3)c3ccccc3)N2C1=O (stereo not drawn) + Cc1c(S(C)(=O)=O)c(-c2cc(F)cc(N3CCN(c4ccc(NS(=O)(=O)c5ccc(NC(CCN6CCC(C(=O)OCCCP(=O)(O)O)CC6)CSc6ccccc6)c(S(=O)(=O)C(F)(F)F)c5)cc4)CC3)c2)c(-c2ccc(Cl)cc2)n1C(C)C", "viability, T/C", "%", 0.48),
    ("COc1c(OCCCN2CCOCC2)ccc2c3n(c(=NC(=O)c4cnc(N)nc4)nc12)CCN3 + Cc1c(S(C)(=O)=O)c(-c2cc(F)cc(N3CCN(c4ccc(NS(=O)(=O)c5ccc(NC(CCN6CCC(C(=O)OCCCP(=O)(O)O)CC6)CSc6ccccc6)c(S(=O)(=O)C(F)(F)F)c5)cc4)CC3)c2)c(-c2ccc(Cl)cc2)n1C(C)C", "viability, T/C", "%", 32.5),
]

----------
# viability, T/C per record follows
# Test system: MDA-MB-231 complex spheroids, growth inhibition
# EXPERIMENT NOTES: Anticancer human tumor MDA-MB-231 cell line growth inhibition [Asc];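 note: spheroids exposed to compounds for 7 days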
# RUN CONDITIONS: second compound 0.0949 µM; first compound 1 µM; active compounds read low
MEASUREMENT KIND: viability, T/C (%)

# COMPOUND, RECORDED NUMBER
measured = [
    ("C=CC(=O)N1CCN(c2nc(=O)n(-c3c(C)ccnc3C(C)C)c3nc(-c4c(O)cccc4F)c(F)cc23)C(C)C1 (centres undefined) + CCN1C(C(=O)NC23CCC(C(=O)O)(CC2)CC3)C(c2cccc(Cl)c2F)C2(C(=O)Nc3cc(Cl)ccc32)C12CCCCC2", 109),
    ("O=C(c1ccc(F)c(F)c1Nc1ccc(I)cc1F)N1CC(O)([C@@H]2CCCCN2)C1 + CCN1C(C(=O)NC23CCC(C(=O)O)(CC2)CC3)C(c2cccc(Cl)c2F)C2(C(=O)Nc3cc(Cl)ccc32)C12CCCCC2", 4.62),
    ("O=C(c1cc(Cc2n[nH]c(=O)c3ccccc23)ccc1F)N1CCN(C(=O)C2CC2)CC1 + CCN1C(C(=O)NC23CCC(C(=O)O)(CC2)CC3)C(c2cccc(Cl)c2F)C2(C(=O)Nc3cc(Cl)ccc32)C12CCCCC2", 99.5),
    ("C=C(F)C(=O)N1CCN(c2nc(OCC3CCCN3C)nc3c2CCN(c2cccc4cccc(Cl)c24)C3)CC1CC#N (centres undefined) + CCN1C(C(=O)NC23CCC(C(=O)O)(CC2)CC3)C(c2cccc(Cl)c2F)C2(C(=O)Nc3cc(Cl)ccc32)C12CCCCC2", 97.1),
]

----------
# Test system: MDA-MB-231 complex spheroids, growth inhibition
# EXPERIMENT NOTES: Anticancer human tumor MDA-MB-231 cell line growth inhibition [Asc];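 note: spheroids exposed to compounds for 7 days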
# RUN CONDITIONS: second compound 0.316 µM; first compound 0.316 µM; active compounds read low
# Text: Multicellular complex tumor spheroid response to apoptosis pathway targeting inhibitors Alrizomadlin, Pelcitoclax, and Dasminapant in combination with a variety of drugs and investigational agents in selected tumor cell lines […] Compounds. […] If the clinical Cmax for an agent had not been determined, the highest concentration tested was 10 microM. […]
Below, each entry is listed alongside its reported viability, T/C.

# COMPOUND, viability, T/C [%]
data = [
    ("COc1c(OCCCN2CCOCC2)ccc2c3n(c(=NC(=O)c4cnc(N)nc4)nc12)CCN3 + Cc1c(S(C)(=O)=O)c(-c2cc(F)cc(N3CCN(c4ccc(NS(=O)(=O)c5ccc(NC(CCN6CCC(C(=O)OCCCP(=O)(O)O)CC6)CSc6ccccc6)c(S(=O)(=O)C(F)(F)F)c5)cc4)CC3)c2)c(-c2ccc(Cl)cc2)n1C(C)C", 24.3),
    ("O=C(c1cc(Cc2n[nH]c(=O)c3ccccc23)ccc1F)N1CCN(C(=O)C2CC2)CC1 + CNC(C)C(=O)NC1CN(S(=O)(=O)c2cccc(S(=O)(=O)N3CCC4CCC(C(=O)NC(c5ccccc5)c5ccccc5)N4C(=O)C(NC(=O)C(C)NC)C3)c2)CCC2CCC(C(=O)NC(c3ccccc3)c3ccccc3)N2C1=O", 1.4),
    ("C=C(F)C(=O)N1CCN(c2nc(OCC3CCCN3C)nc3c2CCN(c2cccc4cccc(Cl)c24)C3)CC1CC#N (stereo not drawn) + Cc1c(S(C)(=O)=O)c(-c2cc(F)cc(N3CCN(c4ccc(NS(=O)(=O)c5ccc(NC(CCN6CCC(C(=O)OCCCP(=O)(O)O)CC6)CSc6ccccc6)c(S(=O)(=O)C(F)(F)F)c5)cc4)CC3)c2)c(-c2ccc(Cl)cc2)n1C(C)C", 106),
]
